- Experimental System: ASIC1a (Homo sapiens)
- Sequence (P78348 whole entry, species assumed): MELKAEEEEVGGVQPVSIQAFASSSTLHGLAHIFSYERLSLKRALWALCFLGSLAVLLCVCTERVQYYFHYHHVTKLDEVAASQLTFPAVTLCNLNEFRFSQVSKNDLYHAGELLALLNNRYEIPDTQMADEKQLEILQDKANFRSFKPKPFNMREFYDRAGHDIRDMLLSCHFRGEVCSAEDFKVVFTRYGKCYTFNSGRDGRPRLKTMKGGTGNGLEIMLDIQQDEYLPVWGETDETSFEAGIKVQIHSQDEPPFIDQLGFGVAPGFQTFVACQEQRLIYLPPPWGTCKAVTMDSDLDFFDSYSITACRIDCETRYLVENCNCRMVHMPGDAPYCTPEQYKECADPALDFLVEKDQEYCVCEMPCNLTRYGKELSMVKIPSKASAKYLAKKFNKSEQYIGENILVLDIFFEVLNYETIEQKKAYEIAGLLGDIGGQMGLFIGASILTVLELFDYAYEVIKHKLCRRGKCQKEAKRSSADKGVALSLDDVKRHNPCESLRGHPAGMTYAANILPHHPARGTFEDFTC
- Protocol Description: Calcium-imaging (calcium mobilization, FLIPR) assay in ASIC1a expressing HEK293 cells
- Assay type: cell-based
- Design: host or cells: HEK293
- Condition Summary: n=3-7, compounds not radiolabelled
Reported IC50 values follow for various molecules
Give a bare numeral; the unit nM is implied.

[in] Param request: IC50 | system ASIC1a (Homo sapiens) | item COc1ccc(F)cc1-c1cc2c(c3c1CCN(C)C3)NC(=O)C2=NO
[out] 700

[in] Param request: IC50 | system ASIC1a (Homo sapiens) | item COc1ccc(F)cc1-c1cc2c(c3c1CCN(C)C3)NC(=O)/C2=N/O [Compound A (minor Z isomer isolated)]
[out] 1000

[in] Param request: IC50 | system ASIC1a (Homo sapiens) | item CCN1CCc2c(-c3cc(Cl)ccc3OC)cc3c(c2C1)NC(=O)/C3=N/O
[out] 300

[in] Param request: IC50 | system ASIC1a (Homo sapiens) | item CCN1CCc2c(-c3ccccc3OC)cc3c(c2C1)NC(=O)/C3=N/O
[out] 700

[in] Param request: IC50 | system ASIC1a (Homo sapiens) | item CN1CCc2c(-c3cc(F)ccc3O)cc3c(c2C1)NC(=O)C3=NO
[out] 800
